Form: system (UniProtKB P14780), quantity (IC50), values below.
Sequence (P14780 94-707): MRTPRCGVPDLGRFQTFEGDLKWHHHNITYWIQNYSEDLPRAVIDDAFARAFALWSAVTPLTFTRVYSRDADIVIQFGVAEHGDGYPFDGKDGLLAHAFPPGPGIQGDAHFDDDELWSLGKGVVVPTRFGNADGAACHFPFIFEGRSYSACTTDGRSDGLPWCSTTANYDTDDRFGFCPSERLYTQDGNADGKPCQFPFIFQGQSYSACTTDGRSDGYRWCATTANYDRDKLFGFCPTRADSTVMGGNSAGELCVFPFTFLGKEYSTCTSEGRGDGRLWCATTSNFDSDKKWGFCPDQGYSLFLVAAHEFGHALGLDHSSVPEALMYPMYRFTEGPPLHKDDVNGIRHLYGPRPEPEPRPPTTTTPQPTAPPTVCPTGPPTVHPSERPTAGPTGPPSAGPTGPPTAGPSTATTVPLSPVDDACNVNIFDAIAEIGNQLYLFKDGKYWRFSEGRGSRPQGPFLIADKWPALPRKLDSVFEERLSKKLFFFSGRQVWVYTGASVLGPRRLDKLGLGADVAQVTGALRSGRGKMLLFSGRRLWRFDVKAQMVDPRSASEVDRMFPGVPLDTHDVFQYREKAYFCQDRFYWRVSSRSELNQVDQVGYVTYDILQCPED
result_type: IC50 (nM)

In [3]: df
Out[3]:
                                   compound      assay_target  result_type  val
0  O=C1NC(=O)C(c2ccc(Oc3ccc(Br)cc3)cc2)(N2CCN(c3ccc(F)cc3)CC2)C(=O)N1 [Compound 20]  UniProtKB P14780         IC50   19
1  O=C1NC(=O)C(c2ccc(Oc3ccc(Br)cc3)cc2)(N2CCN(CCO)CC2)C(=O)N1 [Compound 2, reference compound]  UniProtKB P14780         IC50    4
2  COc1ccc(Oc2ccc(C3(N4CCN(CCO)CC4)C(=O)NC(=O)NC3=O)cc2)cc1 [Compound 3, reference compound]  UniProtKB P14780         IC50    6
3  O=C1NC(=O)C(c2ccc(Oc3ccc(I)cc3)cc2)(N2CCN(CCO)CC2)C(=O)N1 [Compound 4]  UniProtKB P14780         IC50    2

---

pIC50: −log10 of the molar value.
The compounds below have reported pIC50 for MMP-2 (Homo sapiens, UniProt P08253).
result_type: pIC50

                                   compound                          assay_target   val
0  COc1ccc(Oc2ccc(C3(N4CCN(CCO)CC4)C(=O)NC(=O)NC3=O)cc2)cc1 [Compound 3, reference compound]  MMP-2 (Homo sapiens, UniProt P08253)  8.05
1  O=C1NC(=O)C(c2ccc(Oc3ccc(I)cc3)cc2)(N2CCN(CCO)CC2)C(=O)N1 [Compound 4]  MMP-2 (Homo sapiens, UniProt P08253)  8.15
2  O=C1NC(=O)C(c2ccc(Oc3ccc(Br)cc3)cc2)(N2CCN(CCO)CC2)C(=O)N1 [Compound 2, reference compound]  MMP-2 (Homo sapiens, UniProt P08253)  8.05
3  O=C1NC(=O)C(c2ccc(Oc3ccc(Br)cc3)cc2)(N2CCN(c3ccc(F)cc3)CC2)C(=O)N1 [Compound 20]  MMP-2 (Homo sapiens, UniProt P08253)  7.92
